assay: Selectivity index, ratio of CC50 for mouse NCTC-929 cells to IC50 for Leishmania infantum MHOM/BR/1972/LD amastigote forms infected in BALB/c mouse macrophages; format: functional
Please respond with reported Ratio CC50/IC50 for every item in the list.
Simply state the number, no unit and no words.

Exam item: Given C[C@@H]1C[C@@H]2CC[C@@H]3C[C@H](CCCCO[Si](C(C)(C)C)(C(C)(C)C)C(C)(C)C)NC(=[NH+]1)N32.F[B-](F)(F)F , state its recorded Ratio CC50/IC50.
Marked response: 4

Exam item: Item F[B-](F)(F)F.c1ccc([C@@H]2C[C@@H]3CC[C@@H]4C[C@H](c5ccccc5)NC(=[NH+]2)N43)cc1 has what recorded Ratio CC50/IC50?
Marked response: 20

Exam item: I would be grateful if you could share the reported Ratio CC50/IC50 for CC(C)=CCC/C(C)=C/CNC(=N)N.Cl .
Marked response: 6

Exam item: Requested read-out: Ratio CC50/IC50. Entry: C[C@@H]1C[C@@H]2CC[C@@H]3C[C@H](CCCCOCc4ccccc4)NC(=[NH+]1)N32.F[B-](F)(F)F
Marked response: 25

Exam item: What does the record list as Ratio CC50/IC50 for CCCCCCCCCCCCCCCCOP(=O)([O-])OCC[N+](C)(C)C ?
Marked response: 7

Exam item: What measured Ratio CC50/IC50 goes with C=CCOC(=O)C1=C(CCCCC[C@@H](C)O[Si](C(C)(C)C)(C(C)(C)C)C(C)(C)C)NC2=[N+]3[C@H](CC[C@@H]13)C[C@H](C)N2.CC(=O)[O-] ?
Marked response: 3

Exam item: Query: Ratio CC50/IC50; subject: CCCCCCCCC[C@@H]1C[C@@H]2CC[C@H]3C(C(=O)O)[C@@H](C)N=C(N1)N23.O=C(O)C(F)(F)F (single isomer, unassigned; 15)
Marked response: 3

Exam item: Which Ratio CC50/IC50 is reported for this compound? CCCCCCCCCc1cc(CCCO)nc(N)n1
Marked response: 8
